# TARGET SYSTEM: T1, Human TREM2 extracellular domain (ECD), residues 19-131, C-terminally biotinylated, glycosylated (human, UniProt Q9NZC2 19-131, C-terminally biotinylated; glycosylated)
# T1 construct: range 19-131; loaded on Superstreptavidin biosensors; also called Human BLI glycosylated
# T1 sequence (looked up): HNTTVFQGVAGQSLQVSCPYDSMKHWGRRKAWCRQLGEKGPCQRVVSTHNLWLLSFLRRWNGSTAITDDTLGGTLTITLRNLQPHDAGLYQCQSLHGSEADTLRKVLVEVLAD
# PROTOCOL SUMMARY: BLI steady state, glycosylated human TREM2 ECD on sensor
*1 amine or outer side, *2 acyl side, *3 side chain or, on linkers, in order; H or OH if unused. Bridges are numbered along the chain shown (N, C = ends). Where no end group is shown, it is not given here. [ ]: non-standard residue; d: D form. TATA = O=C(CC[*:1])N1CN(C(=O)CC[*:2])CN(C(=O)CC[*:3])C1; Phe(2-Me) = Cc1ccccc1C[C@H](N)C(=O)O
ASSAY METRIC: pKd
# pKd: negative log10 of molar concentration; output just the value

CSEYCFWPXYHC (N-terminal acetyl (Ac); CiSEYCiiFWP[2MePhe]YHCiii; Ci, Cii, Ciii on TATA scaffold) [BCY20071] ... 6.11

Tell me its pKd given CSEYCXWPFYHC (N-terminal acetyl (Ac); CiSEYCii[3FPhe]WPFYHCiii; Ci, Cii, Ciii on TATA scaffold) [BCY20052] as the entry.
5.90

Tell me its pKd given CSEYCFXPFYHC (N-terminal acetyl (Ac); CiSEYCiiF[6MeTrp]PFYHCiii; Ci, Cii, Ciii on TATA scaffold) [BCY20060] as the entry.
5.95

Tell me its pKd given Ac-CSEYCF[Phe(2-Me)]PFYHC (linker 1-5-12 via TATA) [BCY20063] as the entry.
5.80

Tell me its pKd given CSEYCXWPFYHC (N-terminal acetyl (Ac); CiSEYCii[4FPhe]WPFYHCiii; Ci, Cii, Ciii on TATA scaffold) [BCY20053] as the entry.
5.77

Tell me its pKd given CSEYCFWPXYHC (N-terminal acetyl (Ac); CiSEYCiiFWP[2Nal]YHCiii; Ci, Cii, Ciii on TATA scaffold) [BCY20076] as the entry.
5.89
